- experimentalTarget: T1, human TGFβ1 (human, UniProt P01137 279-390)
- T1 construct: also called TGFβ1 homodimer
- T1 sequence (P01137 279-390 limits assumed): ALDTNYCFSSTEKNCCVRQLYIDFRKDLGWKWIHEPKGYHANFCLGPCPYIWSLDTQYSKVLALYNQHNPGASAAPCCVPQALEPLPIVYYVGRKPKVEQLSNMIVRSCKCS
- assayRemarks: Biacore off-rate vs wt GC1008, 50 nM
recordedEndpoint: kd var/kd wt

The recorded kd var/kd wt for entry N32A (antibody, V domains shown, GC1008 IgG4 variant) VH: QVQLVQSGAEVKKPGSSVKVSCKASGYTFSSAVISWVRQAPGQGLEWMGGVIPIVDIANYAQRFKGRVTITADESTSTTYMELSSLRSEDTAVYYCASTLGLVLDAMDYWGQGTLVTVSS VL: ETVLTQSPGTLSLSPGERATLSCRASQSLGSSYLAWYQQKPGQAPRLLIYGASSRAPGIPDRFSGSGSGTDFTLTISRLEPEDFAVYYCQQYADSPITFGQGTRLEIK equals 1.3

The recorded kd var/kd wt for entry V55F (antibody, V domains shown, GC1008 IgG4 variant) VH: QVQLVQSGAEVKKPGSSVKVSCKASGYTFSSNVISWVRQAPGQGLEWMGGVIPIFDIANYAQRFKGRVTITADESTSTTYMELSSLRSEDTAVYYCASTLGLVLDAMDYWGQGTLVTVSS VL: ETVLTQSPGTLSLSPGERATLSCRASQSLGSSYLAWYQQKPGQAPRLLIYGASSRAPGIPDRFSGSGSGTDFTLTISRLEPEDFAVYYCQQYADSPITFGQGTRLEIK equals 1.2

The recorded kd var/kd wt for entry S31A (antibody, V domains shown, GC1008 IgG4 variant) VH: QVQLVQSGAEVKKPGSSVKVSCKASGYTFSANVISWVRQAPGQGLEWMGGVIPIVDIANYAQRFKGRVTITADESTSTTYMELSSLRSEDTAVYYCASTLGLVLDAMDYWGQGTLVTVSS VL: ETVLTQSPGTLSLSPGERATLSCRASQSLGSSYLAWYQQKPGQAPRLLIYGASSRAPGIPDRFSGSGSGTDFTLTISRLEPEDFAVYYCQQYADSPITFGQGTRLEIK equals 1.2

The recorded kd var/kd wt for entry S31V (antibody, V domains shown, GC1008 IgG4 variant) VH: QVQLVQSGAEVKKPGSSVKVSCKASGYTFSVNVISWVRQAPGQGLEWMGGVIPIVDIANYAQRFKGRVTITADESTSTTYMELSSLRSEDTAVYYCASTLGLVLDAMDYWGQGTLVTVSS VL: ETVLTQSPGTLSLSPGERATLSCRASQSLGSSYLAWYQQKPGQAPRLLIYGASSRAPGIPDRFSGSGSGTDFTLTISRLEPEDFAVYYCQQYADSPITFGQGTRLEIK equals 1.4

The recorded kd var/kd wt for entry S30A (antibody, V domains shown, GC1008 IgG4 variant) VH: QVQLVQSGAEVKKPGSSVKVSCKASGYTFASNVISWVRQAPGQGLEWMGGVIPIVDIANYAQRFKGRVTITADESTSTTYMELSSLRSEDTAVYYCASTLGLVLDAMDYWGQGTLVTVSS VL: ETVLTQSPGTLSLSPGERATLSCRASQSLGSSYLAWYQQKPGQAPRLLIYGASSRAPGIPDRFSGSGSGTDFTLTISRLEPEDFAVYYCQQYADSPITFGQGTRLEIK equals 0.7

The recorded kd var/kd wt for entry Y27V (antibody, V domains shown, GC1008 IgG4 variant) VH: QVQLVQSGAEVKKPGSSVKVSCKASGVTFSSNVISWVRQAPGQGLEWMGGVIPIVDIANYAQRFKGRVTITADESTSTTYMELSSLRSEDTAVYYCASTLGLVLDAMDYWGQGTLVTVSS VL: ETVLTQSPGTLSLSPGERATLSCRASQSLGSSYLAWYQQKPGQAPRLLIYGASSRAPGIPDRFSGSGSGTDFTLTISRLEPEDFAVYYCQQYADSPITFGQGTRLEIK equals 1.7

The recorded kd var/kd wt for entry D56S (antibody, V domains shown, GC1008 IgG4 variant) VH: QVQLVQSGAEVKKPGSSVKVSCKASGYTFSSNVISWVRQAPGQGLEWMGGVIPIVSIANYAQRFKGRVTITADESTSTTYMELSSLRSEDTAVYYCASTLGLVLDAMDYWGQGTLVTVSS VL: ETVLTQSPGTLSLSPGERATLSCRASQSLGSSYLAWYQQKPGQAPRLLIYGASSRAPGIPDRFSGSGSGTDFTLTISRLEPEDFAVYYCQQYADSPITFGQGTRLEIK equals 1.1

The recorded kd var/kd wt for entry S31G (antibody, V domains shown, GC1008 IgG4 variant) VH: QVQLVQSGAEVKKPGSSVKVSCKASGYTFSGNVISWVRQAPGQGLEWMGGVIPIVDIANYAQRFKGRVTITADESTSTTYMELSSLRSEDTAVYYCASTLGLVLDAMDYWGQGTLVTVSS VL: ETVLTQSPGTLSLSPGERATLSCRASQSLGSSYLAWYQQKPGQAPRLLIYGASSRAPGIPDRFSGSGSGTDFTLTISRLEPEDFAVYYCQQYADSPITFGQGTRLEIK equals 1.1

The recorded kd var/kd wt for entry D56G (antibody, V domains shown, GC1008 IgG4 variant) VH: QVQLVQSGAEVKKPGSSVKVSCKASGYTFSSNVISWVRQAPGQGLEWMGGVIPIVGIANYAQRFKGRVTITADESTSTTYMELSSLRSEDTAVYYCASTLGLVLDAMDYWGQGTLVTVSS VL: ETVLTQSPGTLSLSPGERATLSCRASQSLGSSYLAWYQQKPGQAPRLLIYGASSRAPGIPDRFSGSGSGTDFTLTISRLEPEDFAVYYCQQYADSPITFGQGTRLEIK equals 1.4

The recorded kd var/kd wt for entry S30N (antibody, V domains shown, GC1008 IgG4 variant) VH: QVQLVQSGAEVKKPGSSVKVSCKASGYTFNSNVISWVRQAPGQGLEWMGGVIPIVDIANYAQRFKGRVTITADESTSTTYMELSSLRSEDTAVYYCASTLGLVLDAMDYWGQGTLVTVSS VL: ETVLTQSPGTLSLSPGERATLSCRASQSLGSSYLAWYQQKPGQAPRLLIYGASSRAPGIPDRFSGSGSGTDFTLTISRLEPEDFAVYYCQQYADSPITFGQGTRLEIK equals 1.3
